assay: NCI Yeast Anticancer Drug Screen. Data for the mec2-1 strain (AID 157); details: S. cerevisiae mec2-1 strain, at 50.0 µM, active compounds read high
About 79,000 compounds went through this panel and 15% of them were active in at least one assay; those are over-represented in the sample as a whole.
Below, each entry is listed alongside its reported growth inhibition.
Numbers only here, please. The scale is %.

Answered examples (5):
CCN(CC)C(=S)[S-].CCN(CC)C(=S)[S-].O=C(O)CC([S-])C(=O)O.[Fe+3] (stereo unspecified); 55.8
CC12OCCN1CCO2; -3.25
CCOP(=S)(OCC)N(C)C(=O)Oc1cccc(C(C)C)c1; -1.05
O=C([O-])CC(=O)[O-].[Cu+2].[OH3+].[OH3+]; 11.2
NCCN.NCCN.O=C([O-])C(=O)[O-].[Cl-].[Co+3]; -16.7

Value of growth inhibition reported for the compound CN(C)C(=O)OC1C(=O)N(C)c2ccc(Cl)cc2C2(c3ccccc3)N1C2(Cl)Cl (stereo unspecified) is -14.8

The reported value for Cc1cc(NN=O)nc(C)n1 in terms of growth inhibition is -4.05

The compound identified as CC(=O)[O-].CC(=O)[O-].O=C([CH-]C(=O)c1ccccc1)c1ccccc1.[Nd+3].[OH3+] registered its growth inhibition at 91.9

The compound COC(=O)C1C2CC3c4c(c5ccc(OC)cc5n4[N+](=O)[O-])CCN3CC2CC(OC(=O)c2cc(OC)c(OC)c(OC)c2)C1OC (stereo unspecified) showed growth inhibition equal to -50.5

Value of growth inhibition reported for the compound ClCCN(CCCl)c1ccc(-c2csc(Cc3ccccc3)n2)cc1 is -7.35

Note to self: growth inhibition recorded for NCC(O)c1ccc2c(c1)OCO2 (stereo unspecified) was -12.7

----------
assay: NCI Yeast Anticancer Drug Screen. Data for the mlh1 rad18 strain (AID 175); settings: S. cerevisiae mlh1 rad18 strain growth inhibition; at 5.0 µM (retest, dose inferred, filed as 0.5)
This is part of a sample that, as a whole, favours compounds with a hit. Of some 79,000 tested, about 15% had one in any assay. Calls of active or inactive are those of the source. No stated cut-off is given here; in the data, active means growth inhibition above about 70%; inactive means the rest.
Classes to choose from: active, inactive

Reference set, count: 5
C[C@@H](O)[C@H]1/C=C/C=C\C(=O)O[C@@H]2C[C@H]3O[C@@H]4[C@@H]5OC5(C)CCC4(COC(=O)[C@H]4O[C@]4(C)[C@@H](O)CO1)[C@]2(C)[C@]31CO1 (some centres undefined); inactive
CC1=C(O)C(=O)C=C2C1=CC=C1[C@@]2(C)CC[C@@]2(C)[C@@H]3C[C@](C)(C(=O)O)CC[C@]3(C)CC[C@]12C; active
CC(C)=N.[C-]#[O+].[C-]#[O+].[C-]#[O+].[C-]#[O+].[C-]#[O+].[W]; inactive
[C-]#[O+].[C-]#[O+].[C-]#[O+].[C-]#[O+].[C-]#[O+].[Mo+2].[Mo+4].[c-]1[c-][c-][cH-][c-]1.[c-]1[c-][c-][cH-][c-]1.c1ccc([PH+](CC[PH+](c2ccccc2)c2ccccc2)c2ccccc2)cc1; active
O=[N+]([O-])c1ccc(NP(=S)(Nc2ccc([N+](=O)[O-])cc2)c2ccccc2)cc1; inactive

Kindly provide the recorded test outcome for the following compound: CC(=O)[CH-]C(C)=O.CC(=O)[CH-]C(C)=O.[O-]c1ccccc1.[O-]c1ccccc1.[Ti+4]
inactive

Assay result, entry CC(C)(C)[Si](OC(=O)N(CCCl)CCCl)(c1ccccc1)c1ccccc1 — outcome?
inactive

Name the outcome recorded for O=C(N/N=C/c1cc(Br)cc(Br)c1[O-])c1ccccc1O.O=C(N/N=C/c1cc(Br)cc(Br)c1[O-])c1ccccc1O.[Mn+2] in the assay.
active

What did the test return for CC1=CC(=C2C=CC(=[N+](C)C)C=C2)C=C(C)S1 ?
inactive

Dear colleague, could you share the recorded outcome for CC(=O)c1ccc(-[n+]2c(C)cc(-c3ccccc3)cc2C)cc1 when you have a moment?
inactive

Where do the numbers come from? From PubChem BioAssay (NCI).
